In this section we review reported MIC values for a set of compounds.
# Tested on: Staphylococcus aureus
# TEST PROTOCOL: microbe, parasite or virus in culture
# CONDITIONS: ATCC 6538
ENDPOINT NAME: MIC (µg/mL)

1. CC(=O)NC[C@H]1CN(c2ccc(N3CCOCC3)c(F)c2)C(=O)O1: 1
2. C/C(=N\NC(=N)N)c1ccc(Nc2nc(-c3ccc(C)cc3)cs2)cc1: 2
3. C/C(=N\NC(=N)N)c1ccc(Nc2nc(-c3ccc(Cl)cc3)cs2)cc1: 1
4. C/C(=N\NC(=N)N)c1ccc(Nc2nc(-c3ccccc3)cs2)cc1: 2

---

In this section we review reported selectivity ratio values for a set of molecules.
# TEST PROTOCOL: Selectivity index, ratio of maximum non-toxic concentration for human Caco-2 cells to MIC for methicillin-resistant Staphylococcus aureus USA300 NRS384
# Assay type: toxicity
ENDPOINT NAME: selectivity ratio

1) C/C(=N\NC(=N)N)c1ccc(Nc2nc(-c3ccc(Cl)cc3)cs2)cc1: 16
2) C/C(=N\NC(=N)N)c1ccc(Nc2nc(-c3ccccc3)cs2)cc1: 16
3) C/C(=N\NC(=N)N)c1ccc(Nc2nc(-c3ccc(C)cc3)cs2)cc1: 16

---

# TEST PROTOCOL: Selectivity index, ratio of maximum non-toxic concentration for human Caco-2 cells to MIC for methicillin-resistant Staphylococcus aureus NRS119
# Assay type: toxicity
ENDPOINT NAME: selectivity ratio

1) C/C(=N\NC(=N)N)c1ccc(Nc2nc(-c3ccc(Cl)cc3)cs2)cc1: 16
2) C/C(=N\NC(=N)N)c1ccc(Nc2nc(-c3ccccc3)cs2)cc1: 16
3) C/C(=N\NC(=N)N)c1ccc(Nc2nc(-c3ccc(C)cc3)cs2)cc1: 16

---

In this section we review reported PAE values for a set of molecules.
# Tested on: Staphylococcus aureus
# TEST PROTOCOL: Bactericidal activity against methicillin-resistant Staphylococcus aureus USA400 NRS123 assessed as post-antibiotic effect at 5 times MIC incubated for 2 hrs followed by compound wash-out by viable plate count method
# Assay type: functional
ENDPOINT NAME: PAE (h)

1) CN[C@H](CC(C)C)C(=O)N[C@H]1C(=O)N[C@@H](CC(N)=O)C(=O)N[C@H]2C(=O)N[C@H]3C(=O)N[C@H](C(=O)N[C@H](C(=O)O)c4cc(O)cc(O)c4-c4cc3ccc4O)[C@H](O)c3ccc(c(Cl)c3)Oc3cc2cc(c3O[C@@H]2O[C@H](CO)[C@@H](O)[C@H](O)[C@H]2O[C@H]2C[C@](C)(N)[C@H](O)[C@H](C)O2)Oc2ccc(cc2Cl)[C@H]1O: 2
2) C/C(=N\NC(=N)N)c1ccc(Nc2nc(-c3ccc(Cl)cc3)cs2)cc1: 4
3) C/C(=N\NC(=N)N)c1ccc(Nc2nc(-c3ccc(C)cc3)cs2)cc1: 6
4) C/C(=N\NC(=N)N)c1ccc(Nc2nc(-c3ccccc3)cs2)cc1: 2

---

In this section we review reported MIC values for a set of molecules.
# System: Escherichia coli
# TEST PROTOCOL: Antibacterial activity against wild type Escherichia coli BW25113 assessed as inhibition of bacterial growth measured after 18 to 20 hrs by broth microdilution method
# Format: functional
# CONDITIONS: time 18-20 hrs
ENDPOINT NAME: MIC

1. CC(=O)c1ccc(Nc2nc(-c3ccc(C)cc3)cs2)cc1: > 64 µg/mL
2. C/C(=N\NC(N)=S)c1ccc(Nc2nc(-c3ccc(C)cc3)cs2)cc1: > 64 µg/mL
3. CC(=O)c1ccc(Nc2nc(-c3ccc(Br)cc3)cs2)cc1: > 64 µg/mL
4. C/C(=N\NC(=N)N)c1ccc(Nc2nc(-c3ccccc3)cs2)cc1: 8 µg/mL
5. C/C(=N\NC(=N)N)c1ccc(Nc2nc(-c3ccc(C)cc3)cs2)cc1: 16 µg/mL
6. CC(=O)c1ccc(Nc2nc(-c3ccccc3)cs2)cc1: > 64 µg/mL
